Each recorded value in this set is attributed to patent US12428420B2.

Record type: IC50 measurement. Applies to: UniProt:P22607
Sequence (P22607 23-806): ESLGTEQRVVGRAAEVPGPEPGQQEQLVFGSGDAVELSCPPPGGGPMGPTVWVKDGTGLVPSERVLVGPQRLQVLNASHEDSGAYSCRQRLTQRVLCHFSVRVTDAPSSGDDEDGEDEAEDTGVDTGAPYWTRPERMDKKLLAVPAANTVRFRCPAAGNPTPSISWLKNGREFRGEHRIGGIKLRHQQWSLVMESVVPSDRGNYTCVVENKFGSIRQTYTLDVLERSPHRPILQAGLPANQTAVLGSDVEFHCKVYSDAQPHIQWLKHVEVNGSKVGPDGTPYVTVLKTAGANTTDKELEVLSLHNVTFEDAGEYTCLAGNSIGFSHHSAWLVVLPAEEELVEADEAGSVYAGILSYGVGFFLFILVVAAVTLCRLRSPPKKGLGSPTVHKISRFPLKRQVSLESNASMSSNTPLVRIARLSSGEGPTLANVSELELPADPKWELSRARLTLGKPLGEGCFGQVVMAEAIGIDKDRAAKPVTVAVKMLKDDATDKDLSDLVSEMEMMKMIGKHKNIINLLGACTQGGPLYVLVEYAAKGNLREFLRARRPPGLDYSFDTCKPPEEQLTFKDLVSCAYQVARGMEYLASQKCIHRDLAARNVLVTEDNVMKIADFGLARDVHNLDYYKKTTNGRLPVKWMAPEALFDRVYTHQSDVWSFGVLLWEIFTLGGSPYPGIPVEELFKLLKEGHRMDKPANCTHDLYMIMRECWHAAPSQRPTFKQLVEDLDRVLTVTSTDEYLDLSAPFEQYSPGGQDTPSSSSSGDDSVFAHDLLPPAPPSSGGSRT
Reported Property: IC50

compound="CC(O)Cn1cc(-c2cnc3ccn4c(CO)c(-c5c(Cl)cccc5Cl)nc4c3c2)cn1 (single isomer, unassigned) [18 peak 1]" system_tested=UniProt:P22607 reported_value="1 to 5 nM"
compound="O=S1(=O)CCCC(n2cc(-c3cnc4ccn5c(CO)c(-c6c(Cl)cccc6Cl)nc5c4c3)cn2)C1 (single isomer, unassigned) [26 peak 1]" system_tested=UniProt:P22607 reported_value="1 to 5 nM"
compound="Cc1c(-c2c(Cl)cccc2Cl)nc2c3cc(-c4cnn(C5CN(C(=O)c6cn(C)nn6)C5)c4)cnc3ccn12 [Example 13]" system_tested=UniProt:P22607 reported_value="1 to 5 nM"
compound="N#Cc1cncc(Cn2cc(-c3cnc4ccn5c(CO)c(-c6c(Cl)cccc6Cl)nc5c4c3)cn2)c1 [Example 2]" system_tested=UniProt:P22607 reported_value="< 1 nM"
compound="CS(=O)(=O)CCn1cc(-c2cnc3ccn4c(C(F)F)c(-c5c(Cl)cccc5Cl)nc4c3c2)cn1 [Example 28]" system_tested=UniProt:P22607 reported_value="< 1 nM"
compound="CC(C#N)n1cc(-c2cnc3ccn4c(C(F)F)c(-c5c(Cl)cccc5Cl)nc4c3c2)cn1 (stereo not drawn) [Example 32]" system_tested=UniProt:P22607 reported_value="< 1 nM"
compound="O=C(c1ccc(-c2cnc3ccn4c(CO)c(-c5c(Cl)cccc5Cl)nc4c3c2)cc1)N1CCOCC1 [Example 6]" system_tested=UniProt:P22607 reported_value="1 to 5 nM"
compound="C[C@H](CO)n1cc(-c2cnc3ccn4c(CO)c(-c5c(Cl)cccc5Cl)nc4c3c2)cn1 [Example 24]" system_tested=UniProt:P22607 reported_value="1 to 5 nM"
compound="COCC(=O)N1CCC(n2cc(-c3cnc4ccn5c(CO)c(-c6c(C)cccc6Cl)nc5c4c3)cn2)CC1 [Example 21]" system_tested=UniProt:P22607 reported_value="1 to 5 nM"
compound="CC(CC#N)n1cc(-c2cnc3ccn4c(CO)c(-c5c(Cl)cccc5Cl)nc4c3c2)cn1 (single isomer, unassigned) [23 peak 2]" system_tested=UniProt:P22607 reported_value="< 1 nM"
compound="O=C(CO)N1CCN(c2ccc(-c3cnc4ccn5c(CO)c(-c6c(Cl)cccc6Cl)nc5c4c3)cc2)CC1 [Example 10]" system_tested=UniProt:P22607 reported_value="1 to 5 nM"
compound="CC(CC#N)n1cc(-c2cnc3ccn4c(CO)c(-c5c(Cl)cccc5Cl)nc4c3c2)cn1 (single isomer, unassigned) [23 peak 1]" system_tested=UniProt:P22607 reported_value="< 1 nM"
compound="CC(=O)N1CCC(n2cc(-c3cnc4ccn5c(CO)c(-c6c(Cl)cccc6Cl)nc5c4c3)cn2)CC1 [Example 20]" system_tested=UniProt:P22607 reported_value="< 1 nM"
compound="O=C(CO)N1CCN(Cc2ccc(-c3cnc4ccn5c(CO)c(-c6c(Cl)cccc6Cl)nc5c4c3)cc2)CC1 [Example 8]" system_tested=UniProt:P22607 reported_value="1 to 5 nM"
compound="Cc1c(-c2c(Cl)cccc2Cl)nc2c3cc(-c4cnn(C5CN(C(=O)c6nnn(C)n6)C5)c4)cnc3ccn12 [Example 14]" system_tested=UniProt:P22607 reported_value="1 to 5 nM"
compound="O=S1(=O)CCCC(n2cc(-c3cnc4ccn5c(CO)c(-c6c(Cl)cccc6Cl)nc5c4c3)cn2)C1 (single isomer, unassigned) [26 peak 2]" system_tested=UniProt:P22607 reported_value="< 1 nM"
compound="CC(C#N)n1cc(-c2cnc3ccn4c(CO)c(-c5c(Cl)cccc5Cl)nc4c3c2)cn1 (single isomer, unassigned) [17 peak 1]" system_tested=UniProt:P22607 reported_value="< 1 nM"
compound="CCn1cc(-c2cnc3ccn4c(CO)c(-c5c(Cl)cccc5Cl)nc4c3c2)cn1 [Example 15]" system_tested=UniProt:P22607 reported_value="1 to 5 nM"
